Hey, just so you know, these numbers are from PubChem BioAssay AID1963985.

Tested on: 252836-082-R-J2-PDC tumor spheroids, viability;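 further: spheroids exposed to agents for seven days before readout; percent of vehicle DMSO control viability so 100% = untreated growth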
Experiment: Anticancer human tumor 252836-082-R-J2-PDC patient-derived head and neck squamous cell carcinoma cell line growth inhibition [PI3K]
Settings: second compound 0.0316 µM; first compound 0.1 µM; hits give low values; spheroids with HUVEC and MSC
viability, T/C values by entry
Express it in %; write the number only.

Examples from the recorded data:
compound	tested.system	reported.result
CC(C)NCC(C(=O)N1CCN(c2ncnc3c2C(C)CC3O)CC1)c1ccc(Cl)cc1 (stereo not given) + Cc1nc(NC(=O)N2CCCC2C(N)=O)sc1-c1ccnc(C(C)(C)C(F)(F)F)c1	252836-082-R-J2-PDC tumor spheroids, viability	73.3
CC1(C)CCC(Nc2ncc(C(F)(F)F)c(-c3c[nH]c4c(P(C)(C)=O)c(C#N)ccc34)n2)CN1 (stereo not given) + COc1c(OCCCN2CCOCC2)ccc2c3n(c(=NC(=O)c4cnc(N)nc4)nc12)CCN3	252836-082-R-J2-PDC tumor spheroids, viability	22.4

Looking up CCCS(=O)(=O)Nc1ccc(F)c(C(=O)c2c[nH]c3ncc(-c4ccc(Cl)cc4)cc23)c1F + CC(Nc1ccc2c(c1)OCCn1cc(N3C(=O)OCC3C(F)F)nc1-2)C(N)=O , I found its viability, T/C recorded as 90

# viability, T/C (compound: CC1(C)CCC(Nc2ncc(C(F)(F)F)c(-c3c[nH]c4c(P(C)(C)=O)c(C#N)ccc34)n2)CN1 (stereo not given) + CC(Nc1ncnc2nc[nH]c12)c1cc2cccc(Cl)c2c(=O)n1-c1ccccc1 ) is 26.6

Per the records, this compound ( CNC(=O)c1ccc(N2C(=S)N(c3ccc(C#N)c(C(F)(F)F)c3)C(=O)C2(C)C)cc1F + Cc1nc(NC(=O)N2CCCC2C(N)=O)sc1-c1ccnc(C(C)(C)C(F)(F)F)c1 ) has viability, T/C equal to 93.2
